Target: Serine/threonine-protein kinase D1 (Homo sapiens) (UniProt Q15139);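 also: each value is an averaged percent inhibition of PRKD1 kinase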
Sequence (whole entry): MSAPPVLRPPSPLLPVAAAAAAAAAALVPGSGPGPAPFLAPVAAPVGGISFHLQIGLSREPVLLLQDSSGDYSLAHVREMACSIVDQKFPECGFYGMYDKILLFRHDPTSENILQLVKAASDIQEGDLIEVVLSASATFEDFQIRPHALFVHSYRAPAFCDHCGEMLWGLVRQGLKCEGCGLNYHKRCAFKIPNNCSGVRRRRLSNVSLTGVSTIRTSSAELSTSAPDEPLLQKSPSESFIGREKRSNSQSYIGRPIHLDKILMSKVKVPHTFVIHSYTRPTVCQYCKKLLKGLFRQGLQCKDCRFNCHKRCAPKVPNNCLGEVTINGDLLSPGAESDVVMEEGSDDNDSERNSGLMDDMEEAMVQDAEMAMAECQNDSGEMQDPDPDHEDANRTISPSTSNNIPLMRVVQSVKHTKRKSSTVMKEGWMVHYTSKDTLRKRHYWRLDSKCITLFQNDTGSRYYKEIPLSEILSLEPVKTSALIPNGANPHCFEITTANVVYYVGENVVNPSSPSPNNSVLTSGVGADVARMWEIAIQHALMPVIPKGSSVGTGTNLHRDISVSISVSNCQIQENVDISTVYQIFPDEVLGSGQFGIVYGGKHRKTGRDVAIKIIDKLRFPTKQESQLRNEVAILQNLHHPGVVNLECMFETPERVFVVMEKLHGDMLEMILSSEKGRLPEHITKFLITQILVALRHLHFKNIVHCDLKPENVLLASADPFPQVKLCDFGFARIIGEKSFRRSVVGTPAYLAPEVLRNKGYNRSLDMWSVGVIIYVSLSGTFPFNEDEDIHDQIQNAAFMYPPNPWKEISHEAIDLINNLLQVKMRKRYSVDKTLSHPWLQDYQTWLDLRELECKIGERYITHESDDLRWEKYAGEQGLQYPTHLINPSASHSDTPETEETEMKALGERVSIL
Conditions: at 1 µM

mol smiles: COc1ccc(-c2ccncc2)cc1C(N)=O
inhibition [%]: 15.2
//
mol smiles: COc1ccc(-c2coc3ncnc(N)c23)cc1
inhibition [%]: 6.99
//
mol smiles: Cc1nnc(-c2ccc(C)c(-c3ccc(C(=O)Nc4cccc(C#N)c4)cc3)c2)o1
inhibition [%]: 4.48
//
mol smiles: CCn1c(-c2nonc2N)nc2c(N3CCCC3)nccc21
inhibition [%]: -0.14
//
mol smiles: Cc1ccc(NC(=O)c2ccnc(N3CCCC3)c2)cc1-c1ccc(C(=O)NCC2CC2)cc1
inhibition [%]: 9.98
//
mol smiles: Cc1ccc(C(=O)NC2CCCCC2)cc1-c1ccc(C(=O)NCC2CC2)cc1
inhibition [%]: 2.69

* * *

Target: MAP kinase-interacting serine/threonine-protein kinase 1 (Homo sapiens) (UniProt Q9BUB5)
Sequence (Q9BUB5 whole entry, looked up): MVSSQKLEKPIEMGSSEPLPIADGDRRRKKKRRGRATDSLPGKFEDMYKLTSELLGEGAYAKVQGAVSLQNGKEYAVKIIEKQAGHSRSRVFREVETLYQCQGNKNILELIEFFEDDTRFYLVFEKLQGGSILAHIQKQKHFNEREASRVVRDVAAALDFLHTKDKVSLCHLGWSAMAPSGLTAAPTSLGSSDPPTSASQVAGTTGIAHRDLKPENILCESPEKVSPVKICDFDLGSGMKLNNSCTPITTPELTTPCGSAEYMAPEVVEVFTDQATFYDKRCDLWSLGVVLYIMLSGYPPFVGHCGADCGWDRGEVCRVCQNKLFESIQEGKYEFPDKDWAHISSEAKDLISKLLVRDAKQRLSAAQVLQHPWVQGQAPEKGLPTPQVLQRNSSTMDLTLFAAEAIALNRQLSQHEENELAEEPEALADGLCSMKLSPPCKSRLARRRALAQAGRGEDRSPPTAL
Settings: at 0.1 µM
Description: GSK_PKIS: MKNK1 mean inhibition at 0.1 uM [Nanosyn]
readout kind: inhibition (%)

mol smiles: Nc1nc(-c2ccccn2)c(-c2ccc3ncccc3n2)s1
numeric result: 2.16
--
mol smiles: O=C1NC(=O)C(c2cccc(Cl)c2)=C1Nc1ccc(O)c(Cl)c1
numeric result: 0.35
--
mol smiles: CN(C)c1cc2c(Nc3ccc4nc(Cc5ccccc5)[nH]c4c3)ncnc2cn1
numeric result: 3.69
--
mol smiles: O=C(Nc1n[nH]c2nc(-c3ccco3)c(Br)cc12)C1CC1
numeric result: 3.3
--
mol smiles: Cc1cc(O)cc(C)c1/C=C/c1cncc(-c2nn[nH]n2)c1
numeric result: 20.6
--
mol smiles: O=C1Nc2ccc(C(=O)c3ccco3)cc2C1=Cc1cc(Cl)c(O)c(Cl)c1
numeric result: 4.13
